Assay: Pharmacokinetics of RTX after intra-articular injection in the Phase 1b study
Format: in vivo, human
Details: human, in vivo, other: intra-articular injection, 20 μg, Cohort 5, 20 μg/5 ml; first subject with quantifiable PK
READOUT NAME: Cmax (ng/mL)
A number alone suffices; assume ng/mL.

Which Cmax value belongs to C=C(C)[C@]12C[C@@H](C)[C@@]34O[C@](Cc5ccccc5)(O[C@@H]1[C@@H]3C=C(COC(=O)Cc1ccc(O)c(OC)c1)C[C@]1(O)C(=O)C(C)=C[C@@H]41)O2 [RTX, resiniferatoxin] ?
0.071

====

Assay: Pharmacokinetics of RTX after intra-articular injection in the Phase 1b study
Format: in vivo, human
Details: human, in vivo, other: intra-articular injection, 5 μg, Cohort 1, 5 μg/5 ml; subject with quantifiable PK
READOUT NAME: Cmax (ng/mL)
Respond with the bare value in ng/mL.

GET /values?readout=Cmax&item= `C=C(C)[C@]12C[C@@H](C)[C@@]34O[C@](Cc5ccccc5)(O[C@@H]1[C@@H]3C=C(COC(=O)Cc1ccc(O)c(OC)c1)C[C@]1(O)C(=O)C(C)=C[C@@H]41)O2`
0.121

Origin of measurements: patent US12029725B2
